# methodNotes: Biodistribution of 18F-labeled SST2 ligands in AR42J tumor-bearing mice
# Type: in vivo
# cond: female, CD1 nu/nu, mouse, muscle, iv, total radioactivity, Blocking study, 1 h post injection; read-out: Muscle % ID/g ± SD
measuredProperty: tissue uptake at 1 h (%ID/g)
Express the result in %ID/g but write the number alone.

Q: Provide one value: measured tissue uptake at 1 h of C[C@@H](O)[C@H](NC(=O)C1CSSCC(NC(=O)C(Cc2ccccc2)NC(=O)CNC(=O)CNC(=O)[C@@H](CC(=O)O)NC(=O)C(CC(=O)O)NC(=O)[C@@H](CNC(=O)CN2CCN(CC(=O)O)CCN(CC(=O)O)CCN(CC(=O)O)CC2)NC(=O)C[N+](C)(C)Cc2ccc([Si](F)(C(C)(C)C)C(C)(C)C)cc2)C(=O)N[C@@H](Cc2ccc(O)cc2)C(=O)NC(Cc2c[nH]c3ccccc23)C(=O)N[C@@H](CCCCN)C(=O)N[C@@H]([C@@H](C)O)C(=O)N1)C(=O)O (stereo partly shown) (natGa complex, metal not drawn) [[Ga]24]
Result: 0.21

---

# methodNotes: Octanol-water distribution coefficient (logD pH 7.4) of the labeled tracer
# Type: physicochemical
# cond: n-octanol/PBS pH 7.4, room temperature
measuredProperty: LogDpH=7.4
Reply briefly: the number, and no unit.

Solved cases (3 shown):
C[C@@H](O)[C@H](NC(=O)C1CSSCC(NC(=O)C(Cc2ccccc2)NC(=O)CNC(=O)CNC(=O)[C@@H](CCCN)NC(=O)C(CCCN)NC(=O)[C@@H](CNC(=O)CC[C@H](C(=O)O)N2CCN(CC(=O)O)CCN(CC(=O)O)CCN(CC(=O)O)CC2)NC(=O)C(CN)NC(=O)c2ccc([Si](F)(C(C)(C)C)C(C)(C)C)cc2)C(=O)N[C@@H](Cc2ccc(O)cc2)C(=O)NC(Cc2c[nH]c3ccccc23)C(=O)N[C@@H](CCCCN)C(=O)N[C@@H]([C@@H](C)O)C(=O)N1)C(=O)O (stereo partly shown) (natGa complex, metal not drawn) [[Ga]37]	−1.92
C[C@@H](O)[C@H](NC(=O)C1CSSCC(NC(=O)C(Cc2ccccc2)NC(=O)CNC(=O)CNC(=O)CNC(=O)C(CC(=O)O)NC(=O)[C@@H](CC(=O)O)NC(=O)C(CNC(=O)CN2CCN(CC(=O)O)CCN(CC(=O)O)CCN(CC(=O)O)CC2)NC(=O)[C@@H](CN)NC(=O)c2ccc([Si](F)(C(C)(C)C)C(C)(C)C)cc2)C(=O)N[C@@H](Cc2ccc(O)cc2)C(=O)NC(Cc2c[nH]c3ccccc23)C(=O)N[C@@H](CCCCN)C(=O)N[C@@H]([C@@H](C)O)C(=O)N1)C(=O)O (stereo partly shown) (natGa complex, metal not drawn) [[Ga]40]	−2.24
C[C@@H](O)[C@H](NC(=O)C1CSSCC(NC(=O)C(Cc2ccccc2)NC(=O)COCCOCCNC(=O)C(CC(=O)O)NC(=O)[C@@H](CC(=O)O)NC(=O)C(CNC(=O)CN2CCN(CC(=O)O)CCN(CC(=O)O)CCN(CC(=O)O)CC2)NC(=O)[C@@H](CN)NC(=O)c2ccc([Si](F)(C(C)(C)C)C(C)(C)C)cc2)C(=O)N[C@@H](Cc2ccc(O)cc2)C(=O)NC(Cc2c[nH]c3ccccc23)C(=O)N[C@@H](CCCCN)C(=O)N[C@@H]([C@@H](C)O)C(=O)N1)C(=O)O (stereo partly shown) (natGa complex, metal not drawn) [[Ga]23]	−1.86

Please look at the following compound next.
Q: Provide one value: measured LogDpH=7.4 of C[C@@H](O)[C@H](NC(=O)C1CSSCC(NC(=O)C(Cc2ccccc2)NC(=O)CNC(=O)C(CC(=O)O)NC(=O)[C@@H](CC(=O)O)NC(=O)C(CNC(=O)CN2CCN(CC(=O)O)CCN(CC(=O)O)CCN(CC(=O)O)CC2)NC(=O)[C@@H](CN)NC(=O)c2ccc([Si](F)(C(C)(C)C)C(C)(C)C)cc2)C(=O)N[C@@H](Cc2ccc(O)cc2)C(=O)NC(Cc2c[nH]c3ccccc23)C(=O)N[C@@H](CCCCN)C(=O)N[C@@H]([C@@H](C)O)C(=O)N1)C(=O)O (stereo partly shown) (natGa complex, metal not drawn) [[Ga]39]
Result: −2.20

---

# methodNotes: Biodistribution of 18F-labeled SST2 ligands in AR42J tumor-bearing mice
# Assay type: in vivo
# cond: female, CD1 nu/nu, mouse, bone, iv, total radioactivity, Blocking study, 1 h post injection; read-out: Bone % ID/g ± SD
measuredProperty: tissue uptake at 1 h (%ID/g)
Express the result in %ID/g but write the number alone.

Q: Provide one value: measured tissue uptake at 1 h of C[C@@H](O)[C@H](NC(=O)C1CSSCC(NC(=O)C(Cc2ccccc2)NC(=O)CNC(=O)CNC(=O)[C@@H](CC(=O)O)NC(=O)C(CC(=O)O)NC(=O)[C@@H](CNC(=O)CN2CCN(CC(=O)O)CCN(CC(=O)O)CCN(CC(=O)O)CC2)NC(=O)C[N+](C)(C)Cc2ccc([Si](F)(C(C)(C)C)C(C)(C)C)cc2)C(=O)N[C@@H](Cc2ccc(O)cc2)C(=O)NC(Cc2c[nH]c3ccccc23)C(=O)N[C@@H](CCCCN)C(=O)N[C@@H]([C@@H](C)O)C(=O)N1)C(=O)O (stereo partly shown) (natGa complex, metal not drawn) [[Ga]24]
Result: 0.77

---

# methodNotes: Biodistribution of 18F-labeled SST2 ligands in AR42J tumor-bearing mice
# Format: in vivo
# cond: female, CD1 nu/nu, mouse, lung, iv, total radioactivity, 1 h post injection, tail vein; read-out: Lung % ID/g ± SD
# Procedure: All animal experiments were conducted in accordance with general animal welfare regulations in Germany and the institutional guidelines for the care and use of animals. […] Approximately 0.5-2.0 MBq (0.05-0.25 nmol) of the ^18F-labeled SST2-ligands were injected into the tail vein of AR42J tumor-bearing female CD1 nu/nu mice and sacrificed after 1 h post injection (n=3-5). Selected organs were removed, weighted and measured in a γ-counter. […]
measuredProperty: tissue uptake at 1 h (%ID/g)
Express the result in %ID/g but write the number alone.

Solved cases (4 shown):
C[C@@H](O)[C@H](NC(=O)C1CSSCC(NC(=O)C(Cc2ccccc2)NC(=O)CNC(=O)CNC(=O)[C@@H](CC(=O)O)NC(=O)C(CC(=O)O)NC(=O)[C@@H](CNC(=O)CN2CCN(CC(=O)O)CCN(CC(=O)O)CCN(CC(=O)O)CC2)NC(=O)C(CN)NC(=O)c2ccc([Si](F)(C(C)(C)C)C(C)(C)C)cc2)C(=O)N[C@@H](Cc2ccc(O)cc2)C(=O)NC(Cc2c[nH]c3ccccc23)C(=O)N[C@@H](CCCCN)C(=O)N[C@@H]([C@@H](C)O)C(=O)N1)C(=O)O (some centres unmarked) (natGa complex, metal not drawn) [[Ga]19]	4.84
C[C@@H](O)[C@H](NC(=O)C1CSSCC(NC(=O)C(Cc2ccccc2)NC(=O)CNC(=O)CNC(=O)[C@@H](CC(=O)O)NC(=O)C(CC(=O)O)NC(=O)[C@@H](CNC(=O)CN2CCN(CC(=O)O)CCN(CC(=O)O)CCN(CC(=O)O)CC2)NC(=O)C[N+](C)(C)Cc2ccc([Si](F)(C(C)(C)C)C(C)(C)C)cc2)C(=O)N[C@@H](Cc2ccc(O)cc2)C(=O)NC(Cc2c[nH]c3ccccc23)C(=O)N[C@@H](CCCCN)C(=O)N[C@@H]([C@@H](C)O)C(=O)N1)C(=O)O (some centres unmarked) (natGa complex, metal not drawn) [[Ga]24]	2.33
C[C@@H](O)[C@H](NC(=O)C1CSSCC(NC(=O)C(Cc2ccccc2)NC(=O)CNC(=O)CNC(=O)CNC(=O)C(CC(=O)O)NC(=O)[C@@H](CC(=O)O)NC(=O)C(CCCCN)NC(=O)[C@@H](CNC(=O)C[N+](C)(C)Cc2ccc([Si](F)(C(C)(C)C)C(C)(C)C)cc2)NC(=O)CN2CCN(CC(=O)O)CCN(CC(=O)O)CCN(CC(=O)O)CC2)C(=O)N[C@@H](Cc2ccc(O)cc2)C(=O)NC(Cc2c[nH]c3ccccc23)C(=O)N[C@@H](CCCCN)C(=O)N[C@@H]([C@@H](C)O)C(=O)N1)C(=O)O (some centres unmarked) (natGa complex, metal not drawn) [[Ga]45]	3.34
C[C@@H](O)[C@H](NC(=O)C1CSSCC(NC(=O)C(Cc2ccccc2)NC(=O)CNC(=O)CNC(=O)CNC(=O)C(CC(=O)O)NC(=O)[C@@H](CC(=O)O)NC(=O)C(CNC(=O)CN2CCN(CC(=O)O)CCN(CC(=O)O)CCN(CC(=O)O)CC2)NC(=O)C[N+](C)(C)Cc2ccc([Si](F)(C(C)(C)C)C(C)(C)C)cc2)C(=O)N[C@@H](Cc2ccc(O)cc2)C(=O)NC(Cc2c[nH]c3ccccc23)C(=O)N[C@@H](CCCCN)C(=O)N[C@@H]([C@@H](C)O)C(=O)N1)C(=O)O (some centres unmarked) (natGa complex, metal not drawn) [[Ga]50]	3.73

Q: Provide one value: measured tissue uptake at 1 h of C[C@@H](O)[C@H](NC(=O)C1CSSCC(NC(=O)C(Cc2ccccc2)NC(=O)CNC(=O)CNC(=O)CNC(=O)C(CC(=O)O)NC(=O)[C@@H](CC(=O)O)NC(=O)C(CCCNC(N)=O)NC(=O)[C@@H](CNC(=O)C[N+](C)(C)Cc2ccc([Si](F)(C(C)(C)C)C(C)(C)C)cc2)NC(=O)CN2CCN(CC(=O)O)CCN(CC(=O)O)CCN(CC(=O)O)CC2)C(=O)N[C@@H](Cc2ccc(O)cc2)C(=O)NC(Cc2c[nH]c3ccccc23)C(=O)N[C@@H](CCCCN)C(=O)N[C@@H]([C@@H](C)O)C(=O)N1)C(=O)O (some centres unmarked) (natGa complex, metal not drawn) [[Ga]46]
Result: 3.22
